The origin of these recorded values is ChEMBL document CHEMBL1152886.

TEST_DESCRIPTION: Half life in Sprague-Dawley rat at 5 mg/kg, iv
Format: ADME, organism-based
Set-up: dose 5 mg/kg, route intravenous
SETUP_CONDITIONS: in vivo
Item-by-item account of half-life
State the answer as a number, implicitly in h.

CS(=O)(=O)O.O=C(Nc1cccc(Cl)c1)Nc1ncc(CCNc2ncnc3ccsc23)s1 [SNS-314 MESYLATE]
2.1

Let us move to another entry and its half-life.
In plain terms, `O=C(/N=c1\sc(CCNc2ncnc3ccsc23)cn1COP(=O)(O)O)Nc1cccc(Cl)c1` has a documented half-life of 0.5

###

TEST_DESCRIPTION: Aqueous solubility at pH 3.5
Format: physicochemical
SETUP_CONDITIONS: aqueous solution
TEST_READOUT: solubility (µg/mL)
State the answer as a number, implicitly in µg/mL.

In plain terms, `O=C(/N=c1\sc(CCNc2ncnc3ccsc23)cn1COC(=O)CC1CCNCC1)Nc1cccc(Cl)c1` has a documented solubility of 2500
